Just for reference, PubChem BioAssay (NCI) is where these values come from.

# TEST DESCRIPTION: NCI Yeast Anticancer Drug Screen. Data for the cln2 rad14 strain (AID 165)
# APPLIED CONDITIONS: S. cerevisiae cln2 rad14 strain, at 5.0 µM (retest, dose inferred, filed as 0.5)
Compounds without any hit were thinned out: in the full panel of roughly 79,000, 15% have a hit. Activity calls are given as the source filed them. No stated cut-off is given here; in the data, active means growth inhibition above about 70%; inactive means the rest.
Labels: true (active), false (inactive)

MOLECULE: C1=C(c2ccccc2)C(=Nc2ccccc2)SC1=Nc1ccccc1
QUALITATIVE LABEL: false
--
MOLECULE: Cc1ccc(S(=O)(=O)S/C(=N\c2ccccn2)Nc2ccccn2)cc1
QUALITATIVE LABEL: false
--
MOLECULE: CCCCCCCCCCCC(=O)NC(CCC(=O)O)C(=O)O (centres undefined)
QUALITATIVE LABEL: false
--
MOLECULE: C=C(C)/C([O-])=N/[N+](C)(C)CC(O)CCCCCCCCCCCC (centres undefined)
QUALITATIVE LABEL: false
--
MOLECULE: COc1ccc2c(Cc3ccccc3)c3[n+](cc2c1OC)CCc1cc2c(cc1-3)OCO2
QUALITATIVE LABEL: false
--
MOLECULE: CC1=CC(C2/C(=N/O)C=C(C)CC2(C)C)C(O)C(C)(C)C1 (centres undefined)
QUALITATIVE LABEL: false
--
MOLECULE: C/C(=N\NC(=S)N1CCN(C2CCCCC2)CC1)c1ccccn1
QUALITATIVE LABEL: false
--
MOLECULE: COc1ccc(CSC(=S)Nc2ccccc2C(F)(F)F)cc1
QUALITATIVE LABEL: false
--
MOLECULE: CCOC(=O)c1c[nH]cc1-c1cn(S(=O)(=O)c2ccccc2)cc1C
QUALITATIVE LABEL: false
--
MOLECULE: CC(C)Cn1cnc2c(SCc3ccc(Cl)cc3Cl)nc(N)nc21
QUALITATIVE LABEL: false
--
MOLECULE: CC1COC(c2cn[nH]c2C(N)=O)C1O (centres undefined)
QUALITATIVE LABEL: false
--
MOLECULE: CN(C)CCCSc1c2ccccc2nc2cccc([N+](=O)[O-])c12
QUALITATIVE LABEL: false
--
MOLECULE: C=C(CSCCCCCCCCCCCC)C(=O)O
QUALITATIVE LABEL: true
--
MOLECULE: Ic1[nH]c(I)c(I)c1I
QUALITATIVE LABEL: false
--
MOLECULE: CCCC(C(=O)OCCNC1CCCCC1)c1ccccc1 (centres undefined)
QUALITATIVE LABEL: false
--
MOLECULE: Cc1ccc(/C=C2\CCCC(CN(C)C)C2=O)cc1 (centres undefined)
QUALITATIVE LABEL: false
--
MOLECULE: CN(/N=C/c1ccc([N+](=O)[O-])o1)C(N)=O
QUALITATIVE LABEL: false
--
MOLECULE: CN(C)c1ccccc1CC(c1c[nH]c2ccccc12)c1c[nH]c2ccccc12
QUALITATIVE LABEL: false
--
MOLECULE: Fc1ccc(C2(CCCN3CCc4[nH]c5cc(F)ccc5c4C3)OCCO2)cc1
QUALITATIVE LABEL: false
--
MOLECULE: O=C/C(Br)=C\c1ccccc1
QUALITATIVE LABEL: false
--
MOLECULE: COc1ccc(SSc2ccc(OC)n[n+]2[O-])[n+]([O-])n1
QUALITATIVE LABEL: false
--
MOLECULE: CS(=O)(=O)C(=Cc1ccccc1Cl)S(C)(=O)=O
QUALITATIVE LABEL: false
--
MOLECULE: COc1ccc2nc3cccc([N+](=O)[O-])c3c(NCCN(C)C)c2c1
QUALITATIVE LABEL: true
--
MOLECULE: Cc1ccc([P+](CCN2C(=O)c3ccccc3C2=O)(c2ccc(C)cc2)c2ccc(C)cc2)cc1
QUALITATIVE LABEL: true
